B1: Gamma-crystallin D, residues 90 to 170; numbered along this chain, P07320 (parent)
chain: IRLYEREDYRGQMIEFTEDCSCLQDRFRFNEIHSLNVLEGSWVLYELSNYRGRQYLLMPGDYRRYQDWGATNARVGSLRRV

- Variants of: B1
- method-notes: abundance fitness (aPCA) (normalised: wild type 0, dead -1); higher = more abundant; growth selection in yeast, the domain comes from the species named
- experimental-conditions: Homo sapiens
Label 1 for high-side abundance fitness (at or above -0.03) and -1 for low-side abundance fitness (below it).

| variant-name | assigned-label |
| --- | --- |
| C22D | 1 |
| H33M | 1 |
| F16D | -1 |
| Y50V | -1 |
| H33D | 1 |
| V43D | 1 |
| I32C | 1 |
| I32V | 1 |
| R53E | -1 |
| Q24K | 1 |
| G40V | 1 |
| E15L | -1 |
| L38M | -1 |
| Y50I | -1 |
| E46Y | -1 |
| Y4R | -1 |
| F16H | 1 |
| V37Q | -1 |
| Y4A | -1 |
| E18A | 1 |
| V43P | -1 |
| L44A | 1 |
